assay: in vivo; details: SD, rat, iv, 2.5 mg/kg
Numbered stars: 1 amine (or outer) side, 2 acyl side, 3 side chain; on linkers, the order of the positions; unused ones are H or OH. Bridge positions count the residues as written; N and C are the ends. Square brackets hold non-standard residues; d marks the D form. Peptide text beside a SMILES is read from it. * marks the point of attachment. Orn(4R-OH,5R-OCH2CH2NMe3+) = C[N+](C)(C)CCO[C@@H](N[*:3])[C@H](O)C[C@H](N[*:1])C(=O)[*:2]; hTyr(3S-OH,4S-OH) = N[C@H](C(=O)O)[C@H](O)[C@@H](O)c1ccc(O)cc1; X1 = CCCCCOc1cc(F)c(C#Cc2ccc3cc(C(=O)*)ccc3c2)cc1F; Pro(3S-OH,4S-Me) = C[C@H]1CN[C@H](C(=O)O)[C@H]1O; Hyp = O=C(O)[C@@H]1C[C@@H](O)CN1
Recorded Metric: Cmax (ng/mL)
Response body: numeric value in ng/mL, unit text excluded.

Cmax measured on CCCCCOc1cc(F)c(C#Cc2ccc3cc(C(=O)N[C@H]4C[C@@H](O)[C@@H](OCC[N+](C)(C)C)NC(=O)[C@@H]5[C@@H](O)[C@@H](C)CN5C(=O)[C@H]([C@@H](C)O)NC(=O)[C@H]([C@H](O)[C@@H](O)c5ccc(O)cc5)NC(=O)[C@@H]5C[C@@H](O)CN5C(=O)[C@H]([C@@H](C)O)NC4=O)ccc3c2)cc1F [Example 16] (X1-[Orn(4R-OH,5R-OCH2CH2NMe3+)]T[Hyp][hTyr(3S-OH,4S-OH)]T[Pro(3S-OH,4S-Me)]; lactam 1-C) = 6080

Entry source: patent US20250011365A1
